pIC50: −log10 of the molar value.
human Factor Xa (Homo sapiens): reported pIC50 for various compounds.
Sequence (P00742 235-488 limits assumed): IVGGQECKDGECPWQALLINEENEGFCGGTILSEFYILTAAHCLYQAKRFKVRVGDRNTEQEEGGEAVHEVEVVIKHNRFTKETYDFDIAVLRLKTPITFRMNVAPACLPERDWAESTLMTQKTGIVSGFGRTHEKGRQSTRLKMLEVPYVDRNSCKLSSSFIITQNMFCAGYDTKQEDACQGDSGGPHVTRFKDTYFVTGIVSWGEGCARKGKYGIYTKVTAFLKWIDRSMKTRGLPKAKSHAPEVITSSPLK
Sequence (P00742 41-179 partner limits assumed): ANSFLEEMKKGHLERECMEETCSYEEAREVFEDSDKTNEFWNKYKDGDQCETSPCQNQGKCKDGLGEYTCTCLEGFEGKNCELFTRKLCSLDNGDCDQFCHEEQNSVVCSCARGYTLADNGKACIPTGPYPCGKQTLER
OBSERVATION_TYPE: pIC50

> print(dat)
                                   compound  observation.type  observed.measurement
1  O=C(C1CCN(c2ccncc2)CC1)N1CCN(S(=O)(=O)c2ccc3cc(Cl)ccc3c2)CC1             pIC50                  8.52
2  O=C(CNS(=O)(=O)c1ccc2ccccc2c1)NC(CNC(=O)C1CCN(c2ccncc2)CC1)C(=O)N1CCCCC1 (stereo not drawn)             pIC50                  6.52
3  O=C(C1CCN(c2ccncc2)CC1)N1CCN(S(=O)(=O)c2ccc(-c3ccc(Cl)cc3)cc2)CC1             pIC50                  8.00

Values from patent US6730672B2
